Test system: Escherichia coli
assay-method-text: Potency index, ratio of sulfisoxazole MIC to compound MIC for Escherichia coli assessed as inhibition of DHPS-mediated bacterial growth incubated for 24 hrs by microbroth dilution method
attribute-measured: Ratio

[[record]]
chemical_string = "C=CCN/C(S[C@@H]1O[C@H](COC(C)=O)[C@H](OC(C)=O)[C@H](OC(C)=O)[C@H]1OC(C)=O)=C(/C#N)C(=O)Nc1ccc(S(=O)(=O)Nc2onc(C)c2C)cc1"
result = 3


q: Report Ratio for `C=CCN/C(S[C@@H]1O[C@H](COC(C)=O)[C@@H](OC(C)=O)[C@H](OC(C)=O)[C@H]1OC(C)=O)=C(/C#N)C(=O)Nc1ccc(S(=O)(=O)Nc2onc(C)c2C)cc1` please.
a: 4

q: Same for `CN/C(S[C@@H]1O[C@H](COC(C)=O)[C@@H](OC(C)=O)[C@H](OC(C)=O)[C@H]1OC(C)=O)=C(/C#N)C(=O)Nc1ccc(S(=O)(=O)Nc2onc(C)c2C)cc1`
a: 4

q: Same for `CCN/C(S[C@@H]1O[C@H](COC(C)=O)[C@H](OC(C)=O)[C@H](OC(C)=O)[C@H]1OC(C)=O)=C(/C#N)C(=O)Nc1ccc(S(=O)(=O)Nc2onc(C)c2C)cc1`
a: 3
